Experimental Target: human MCH-1 receptor (Homo sapiens, UniProt Q99705)
Sequence (Q99705 whole entry): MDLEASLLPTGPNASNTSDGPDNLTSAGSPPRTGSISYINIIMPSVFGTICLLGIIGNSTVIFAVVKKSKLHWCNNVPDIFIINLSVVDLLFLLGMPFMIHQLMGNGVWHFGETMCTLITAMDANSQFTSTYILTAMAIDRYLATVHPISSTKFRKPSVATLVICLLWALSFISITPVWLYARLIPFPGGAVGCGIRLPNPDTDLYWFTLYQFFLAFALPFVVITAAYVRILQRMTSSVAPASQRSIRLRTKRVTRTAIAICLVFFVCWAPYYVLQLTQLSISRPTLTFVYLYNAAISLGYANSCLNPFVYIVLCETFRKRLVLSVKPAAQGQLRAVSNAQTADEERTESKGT
pKi: −log10 of the molar value. Structures can show the parent of a compound that is named as a salt.
Outcome label depends on pKi relative to 8: at/above gives 1, below gives 0.

Reference set (4 entries):
{"Compound": "O=c1cc(OCc2ccccc2)ccn1-c1ccc2c3c(oc2c1)CCNCC3 [Example 41, hydrochloride]", "Experimental Target": "human MCH-1 receptor (Homo sapiens, UniProt Q99705)", "Discrete Label": 1}
{"Compound": "O=c1cc(OCc2ccccc2)ccn1-c1ccc2oc3c(c2c1)CNCC3 [Example 74, hydrochloride]", "Experimental Target": "human MCH-1 receptor (Homo sapiens, UniProt Q99705)", "Discrete Label": 0}
{"Compound": "O=c1cc(OCc2ccc(Cl)cn2)ccn1-c1ccc2c3c(oc2c1)CCNC3 [Example 10, hydrochloride]", "Experimental Target": "human MCH-1 receptor (Homo sapiens, UniProt Q99705)", "Discrete Label": 1}
{"Compound": "O=c1cc(OCc2ccc(F)cn2)ccn1-c1ccc2c3c(oc2c1)CCN(CCF)C3 [Example 72, hydrochloride]", "Experimental Target": "human MCH-1 receptor (Homo sapiens, UniProt Q99705)", "Discrete Label": 0}

*Q* Check this compound for pKi at or above 8: CN1CCc2oc3cc(-n4ccc(OCc5ccc(C(F)(F)F)nc5)cc4=O)ccc3c2CC1 [Example 84, hydrochloride]
*A* 0

###

Hi there, I'd appreciate the recorded inhibition at 1 µM for every entry that follows.
Experimental Target: human MCH-1 receptor (Homo sapiens, UniProt Q99705)
Protocol Details: Binding assay for human melanin-concentrating hormone (MCH-1) receptor, radioligand displacement on CHO-K1 cell membranes
Measurement Parameters: read-out: MCH1 % inhibition @ 1 uM
Counter-ions that a name gives are not always drawn.
One number for each entry, in %.

Here are 5 compounds together with their reported answers.
{"Compound": "Cl.O=c1cc(OCc2ccc(F)cn2)ccn1-c1ccc2sc3c(c2c1)CNCCC3 [Example 119, hydrochloride]", "Experimental Target": "human MCH-1 receptor (Homo sapiens, UniProt Q99705)", "inhibition at 1 µM (%)": -2.6}
{"Compound": "O=c1cc(OCc2ccc(F)cn2)ccn1-c1ccc2oc3c(c2c1)CNCCC3 [Example 75, hydrochloride]", "Experimental Target": "human MCH-1 receptor (Homo sapiens, UniProt Q99705)", "inhibition at 1 µM (%)": 34}
{"Compound": "Cl.O=c1cc(OCc2ccccc2)ccn1-c1ccc2sc3c(c2c1)CNCC3 [Example 67, hydrochloride]", "Experimental Target": "human MCH-1 receptor (Homo sapiens, UniProt Q99705)", "inhibition at 1 µM (%)": 31}
{"Compound": "O=c1cc(OCc2ccccc2)ccn1-c1ccc2sc3c(c2c1)CCCNC3 [Example 116, hydrochloride]", "Experimental Target": "human MCH-1 receptor (Homo sapiens, UniProt Q99705)", "inhibition at 1 µM (%)": 37}
{"Compound": "Cl.O=c1cc(OCc2ccc(F)cn2)ccn1-c1ccc2sc3c(c2c1)CNCC3 [Example 68, hydrochloride]", "Experimental Target": "human MCH-1 receptor (Homo sapiens, UniProt Q99705)", "inhibition at 1 µM (%)": 13}

As a next step, examine the compound that follows.
*Q* # return recorded inhibition at 1 µM for input CC(C)N1CCCc2oc3cc(N4CCN(CCc5ccc(Cl)cn5)CC4=O)ccc3c2C1 [Example 97, hydrochloride]
*A* 66

###

Counter-ions that a name gives are not always drawn.
pKi values recorded for human MCH-1 receptor (Homo sapiens)
Answers are plain numbers, as −log10 of the molar value.

{"Molecule": "O=C1CN(CCc2ccc(Cl)cn2)CCN1c1ccc2c3c(oc2c1)CCNCC3 [Example 98, hydrochloride]", "Experimental Target": "human MCH-1 receptor (Homo sapiens)", "pKi": 6.82}
{"Molecule": "O=c1cc(OCc2ccccc2)ccn1-c1ccc2c3c(oc2c1)CCNC3 [Example 6, hydrochloride]", "Experimental Target": "human MCH-1 receptor (Homo sapiens)", "pKi": 8.48}

// for each molecule in input: emit pKi
1. Cl.O=c1cc(OCc2ccc(C(F)(F)F)nn2)ccn1-c1ccc2c3c(oc2c1)CCNC3 [Example 113, hydrochloride]
2. O=c1cc(-c2ccc(C(F)(F)F)cn2)ccn1-c1ccc2c3c(oc2c1)CCNC3 [Example 11, hydrochloride]
3. O=c1cc(-c2ccc(C(F)(F)F)nc2)ccn1-c1ccc2c3c(oc2c1)CCNC3 [Example 5, hydrochloride]
4. CC(=O)N1CCc2c(sc3cc(-n4ccc(OCc5ccc(F)cn5)cc4=O)ccc23)C1
5. Cl.O=c1cc(-c2ccc(C(F)(F)F)cc2)ccn1-c1ccc2c3c(oc2c1)CCNC3 [Example 71, hydrochloride]
6. O=c1cc(-c2ccc(C(F)(F)F)nc2)ccn1-c1ccc2c3c(oc2c1)CNCC3 [Example 4, hydrochloride]
7. O=c1cc(OCc2ccc(F)cn2)ccn1-c1ccc2c3c(oc2c1)CCNC3 [Example 7, hydrochloride]

*A*
[7.70, 6.78, 7.25, 7.41, 8.12, 5.88, 8.14]

// for each molecule in input: emit pKi
1. O=C1CN(CCc2ccc(F)cn2)CCN1c1ccc2c3c(sc2c1)CNCC3 [Example 60, hydrochloride]
2. CN1CCCc2oc3cc(-n4ccc(-c5ccc(C(F)(F)F)cc5)cc4=O)ccc3c2C1 [Example 82, hydrochloride]
3. Cl.O=c1nc(CCc2ccc(Cl)cn2)ccn1-c1ccc2c3c(oc2c1)CCNC3 [Example 101, hydrochloride]
4. O=c1cc(OCc2ccc(Cl)cn2)ccn1-c1ccc2c3c(oc2c1)CCNCC3 [Example 42, hydrochloride]
5. Cl.O=c1cc(OCc2ccccc2)ccn1-c1ccc2sc3c(c2c1)CCNC3 [Example 65, hydrochloride]

*A*
6.93
8.09
7.70
8.33
6.44

// for each molecule in input: emit pKi
1. Cc1ccc(COc2ccn(-c3ccc4c5c(oc4c3)CCCNC5)c(=O)c2)cn1 [Example 46, hydrochloride]
2. CCN1CCc2c(sc3cc(-n4ccc(OCc5ccc(F)cn5)cc4=O)ccc23)C1 [Example 56, hydrochloride]

*A*
[7.33, 8.02]

###

Hi there, I'd appreciate the recorded melting point for every entry that follows.

Here are 3 compounds together with their reported answers.
{"Input Smiles": "COc1ccc(-c2ccn(-c3ccc4c5c(oc4c3)CCNC5)c(=O)c2)c(Cl)c1.Cl", "melting point": "294 to 297 °C"}
{"Input Smiles": "Cl.O=c1cc(OCc2ccc(F)cn2)cnn1-c1ccc2c3c(oc2c1)CCNC3", "melting point": "268 to 269 °C"}
{"Input Smiles": "Cl.O=c1cc(CCc2ccc(F)cn2)ccn1-c1ccc2c3c(oc2c1)CCNC3", "melting point": "165 to 169 °C"}

// for each compound in input: emit melting point
1. Cl.O=c1cc(OCc2ccccc2)ccn1-c1ccc2sc3c(c2c1)CNCCC3
2. Cl.O=c1cc(-c2ccc(C(F)(F)F)nn2)ccn1-c1ccc2c3c(oc2c1)CCNC3
3. Cl.O=c1nc(CCc2ccc(Cl)cn2)ccn1-c1ccc2c3c(oc2c1)CCNC3
4. Cl.O=c1cc(CCc2ccc(Cl)cn2)ccn1-c1ccc2c3c(oc2c1)CCNC3
5. Cl.O=c1cc(-c2ccc(C(F)(F)F)cc2)ccn1-c1ccc2c3c(oc2c1)CCNC3

*A*
176 to 178 °C
> 300 °C
155 to 160 °C
285 to 288 °C
> 300 °C

###

Experimental Target: human MCH-1 receptor (Homo sapiens)
Where a name gives a salt, the structure may show the parent alone.
Readout: Ki (nM)
Answers are plain numbers, in nM.

// for each molecule in input: emit Ki
1. O=c1cc(OCc2ccc(F)cn2)ccn1-c1ccc2c3c(sc2c1)CCNCC3 [Example 21]
2. Cc1ccc(COc2ccn(-c3ccc4c5c(sc4c3)CNCC5)c(=O)c2)cn1 [Example 62, hydrochloride]
3. O=c1cc(OCc2ccc(Cl)cn2)ccn1-c1ccc2c3c(sc2c1)CCCNC3 [Example 123, hydrochloride]

*A*
[3.8, 103, 2.9]

// for each molecule in input: emit Ki
1. O=c1cc(OCc2ccccc2)ccn1-c1ccc2c3c(sc2c1)CCCNC3 [Example 122, hydrochloride]
2. O=c1cc(OCc2ccccc2)ccn1-c1ccc2c3c(oc2c1)CCN1CCCC31 (stereo not shown) [Example 73, hydrochloride]
3. O=c1cc(OCc2ccc(F)cn2)ccn1-c1ccc2c3c(oc2c1)CCN1CCCC31 (stereo not shown) [Example 80, hydrochloride]
4. O=c1cc(OCc2ccccc2)ccn1-c1ccc2c3c(sc2c1)CNCCC3 [Example 19]
5. O=C1CN(CCc2ccc(Cl)cn2)CCN1c1ccc2c3c(sc2c1)CNCC3 [Example 121, hydrochloride]

*A*
[3.3, 5.5, 8.3, 8.2, 44]

// for each molecule in input: emit Ki
1. CC(C)N1CCc2oc3cc(-n4ccc(OCc5ccc(F)cn5)cc4=O)ccc3c2C1 [Example 28, hydrochloride]
2. Cc1ccc(COc2ccn(-c3ccc4c5c(oc4c3)CCCN(C)C5)c(=O)c2)cn1 [Example 85, hydrochloride]
3. CC(=O)N1CCc2oc3cc(-n4ccc(OCc5ccc(F)cn5)cc4=O)ccc3c2C1 [Example 29]
4. O=c1cc(-c2ccc(C(F)(F)F)cn2)ccn1-c1ccc2c3c(sc2c1)CNCC3 [Example 12, hydrochloride]
5. O=c1cc(OCc2ccc(C(F)(F)F)cn2)ccn1-c1ccc2c3c(oc2c1)CCNC3 [Example 115, hydrochloride]
6. CN1CCCc2oc3cc(N4CCN(CCc5ccc(Cl)cn5)CC4=O)ccc3c2C1 [Example 94, hydrochloride]

*A*
9.8
116
46
93
13
103

// for each molecule in input: emit Ki
1. O=c1cc(OCc2ccccc2)ccn1-c1ccc2c3c(oc2c1)CNCC3 [Example 2, hydrochloride]
2. O=c1cc(OCc2ccccc2)ccn1-c1ccc2c3c(oc2c1)CCCNC3 [Example 40, hydrochloride]

*A*
[23, 3.4]
